# Test system: 857933-349-R-J2-PDC complex spheroid viability;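 note: spheroids exposed to compounds for seven days before readout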
# protocol: Anticancer human tumor 857933-349-R-J2-PDC patient-derived colon adenocarcinoma cell line growth inhibition [POLQ]
# experimental context: second compound 3.16 µM; first compound 0.1 µM; active compounds read low
result type: viability, T/C (%)
Please reply with the bare figure in % and do not write the unit itself.

GET viability, T/C | system: 857933-349-R-J2-PDC complex spheroid viability | item: CC[C@@]1(O)C(=O)OCc2c1cc1n(c2=O)Cc2cc3c(CN(C)C)c(O)ccc3nc2-1 + COC1C(OC(N)=O)C(O)C(Oc2ccc3c(O)c(NC(=O)c4ccc(O)c(CC=C(C)C)c4)c(=O)oc3c2C)OC1(C)C;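 note: spheroids exposed to compounds for seven days before readout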
44.3

GET viability, T/C | system: 857933-349-R-J2-PDC complex spheroid viability | item: CCc1cc2c(N3CCc4c(cc(Cn5ccnc5)cc4-c4cn(C)nc4C(F)(F)F)C3=O)ccnc2c(OC)n1 + Cc1cccc(N(C)C(=O)C2C(O)CCN2c2nc(C)cc(C(F)(F)F)c2C#N)c1;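 note: spheroids exposed to compounds for seven days before readout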
80.1

GET viability, T/C | system: 857933-349-R-J2-PDC complex spheroid viability | item: CNCc1ccc(-c2[nH]c3cc(F)cc4c3c2CCNC4=O)cc1 + COC1C(OC(N)=O)C(O)C(Oc2ccc3c(O)c(NC(=O)c4ccc(O)c(CC=C(C)C)c4)c(=O)oc3c2C)OC1(C)C;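 note: spheroids exposed to compounds for seven days before readout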
102

GET viability, T/C | system: 857933-349-R-J2-PDC complex spheroid viability | item: CCc1cc2c(N3CCc4c(cc(Cn5ccnc5)cc4-c4cn(C)nc4C(F)(F)F)C3=O)ccnc2c(OC)n1 + COC1C(OC(N)=O)C(O)C(Oc2ccc3c(O)c(NC(=O)c4ccc(O)c(CC=C(C)C)c4)c(=O)oc3c2C)OC1(C)C;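 note: spheroids exposed to compounds for seven days before readout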
98.2

GET viability, T/C | system: 857933-349-R-J2-PDC complex spheroid viability | item: CC(C)n1c(=O)n(C)c2cnc3cc(F)c(-c4ccc(OCCCN5CCCCC5)nc4)cc3c21 + Cc1cccc(N(C)C(=O)C2C(O)CCN2c2nc(C)cc(C(F)(F)F)c2C#N)c1;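 note: spheroids exposed to compounds for seven days before readout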
89.2

GET viability, T/C | system: 857933-349-R-J2-PDC complex spheroid viability | item: CCc1c2c(nc3ccc(O)cc13)-c1cc3c(c(=O)n1C2)COC(=O)[C@]3(O)CC + Cc1cccc(N(C)C(=O)C2C(O)CCN2c2nc(C)cc(C(F)(F)F)c2C#N)c1;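 note: spheroids exposed to compounds for seven days before readout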
19.1

GET viability, T/C | system: 857933-349-R-J2-PDC complex spheroid viability | item: CC1COCCN1c1cc(C2(O)CC3CCC(C2)O3)c2cnn(-c3ccn[nH]3)c2n1 (centres undefined) + COC1C(OC(N)=O)C(O)C(Oc2ccc3c(O)c(NC(=O)c4ccc(O)c(CC=C(C)C)c4)c(=O)oc3c2C)OC1(C)C;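 note: spheroids exposed to compounds for seven days before readout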
54.5

GET viability, T/C | system: 857933-349-R-J2-PDC complex spheroid viability | item: CC1COCCN1c1cc(-c2ccnn2C)c2ccnc(-c3ccn[nH]3)c2n1 (centres undefined) + Cc1cccc(N(C)C(=O)C2C(O)CCN2c2nc(C)cc(C(F)(F)F)c2C#N)c1;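 note: spheroids exposed to compounds for seven days before readout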
55.4

GET viability, T/C | system: 857933-349-R-J2-PDC complex spheroid viability | item: O=c1[nH]cc(F)c(=O)[nH]1 + Nc1ccc(C#CCN(C(=O)Cc2ncc(C(F)(F)F)cc2C(F)(F)F)c2ccc(F)cc2)nn1;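 note: spheroids exposed to compounds for seven days before readout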
106
